Target: 11-beta-hydroxysteroid dehydrogenase 1 (Homo sapiens)
Sequence (P28845 whole entry, looked up): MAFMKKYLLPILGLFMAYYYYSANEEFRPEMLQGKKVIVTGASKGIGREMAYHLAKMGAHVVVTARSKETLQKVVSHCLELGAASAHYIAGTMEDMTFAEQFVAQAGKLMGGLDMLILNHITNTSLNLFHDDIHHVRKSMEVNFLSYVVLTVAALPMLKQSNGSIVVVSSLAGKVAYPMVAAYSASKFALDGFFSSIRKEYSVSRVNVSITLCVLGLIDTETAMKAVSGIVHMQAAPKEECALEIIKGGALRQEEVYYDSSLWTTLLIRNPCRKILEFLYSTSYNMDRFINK
Settings: HEK293, at 200 nM
Description: Inhibition of human recombinant 11beta-HSD1 expressed in HEK293 cells assessed as residual conversion of [1,2-[3H]cortisone to cortisol at 200 nM after 10 mins by scintillation counting
Cut-off 80% on residual activity: below means label 1, at or above means label 0.

Q: Say whether its residual activity is strictly beneath 80%. Entry: "CC(=O)O[C@H]1CC[C@]2(C)[C@H]3C(=O)C=C4[C@@H]5C[C@@](C)(NC(=O)N(C)O)CC[C@]5(C)CC[C@@]4(C)[C@]3(C)CC[C@H]2C1(C)C"
Ans: label 0

Q: Say whether its residual activity is strictly beneath 80%. Entry: "CC(=O)O[C@H]1CC[C@]2(C)[C@H]3C(=O)C=C4[C@@H]5C[C@@](C)(NC(=O)NS(C)(=O)=O)CC[C@]5(C)CC[C@@]4(C)[C@]3(C)CC[C@H]2C1(C)C"
Ans: label 0

Q: Say whether its residual activity is strictly beneath 80%. Entry: "CC(=O)O[C@H]1CC[C@]2(C)[C@H]3C(=O)C=C4[C@@H]5C[C@@](C)(NC(=O)NCCO)CC[C@]5(C)CC[C@@]4(C)[C@]3(C)CC[C@H]2C1(C)C"
Ans: label 0

Q: Say whether its residual activity is strictly beneath 80%. Entry: "CN(O)C(=O)[C@@]1(C)CC[C@]2(C)CC[C@]3(C)C(=CC(=O)[C@@H]4[C@@]5(C)CCC(=O)NC(C)(C)[C@@H]5CC[C@]43C)[C@@H]2C1"
Ans: label 1

Q: Say whether its residual activity is strictly beneath 80%. Entry: "CC1(C)[C@@H](O)CC[C@]2(C)C3=CC(=O)[C@H]4[C@@H]5C[C@@](C)(C(=O)O)CC[C@]5(C)CC[C@@]4(C)[C@]3(C)CC[C@@H]12"
Ans: label 1

Q: Say whether its residual activity is strictly beneath 80%. Entry: "CC(=O)O[C@H]1CC[C@]2(C)[C@H]3C(=O)C=C4[C@@H]5C[C@@](C)(NC(=O)NO)CC[C@]5(C)CC[C@@]4(C)[C@]3(C)CC[C@H]2C1(C)C"
Ans: label 0

Q: Say whether its residual activity is strictly beneath 80%. Entry: "CC(=O)O[C@H]1CC[C@]2(C)[C@H]3C(=O)C=C4[C@@H]5C[C@@](C)(NC(=O)N(CCO)CCO)CC[C@]5(C)CC[C@@]4(C)[C@]3(C)CC[C@H]2C1(C)C"
Ans: label 0
